Entry source: patent US20210355194A1

# reported ELISA fold over background; entries follow
Molecular target: S1 Fc fusion protein (SARS-CoV-2, UniProt P0DTC2 14-685)
Experiment: phage ELISA

| Binder | ELISA fold over background, fold |
| --- | --- |
| SARS-CoV-2 variant 1-5 (antibody, V domains shown) VH: EVQLLESGGGLVQPGGSLRLSCAASGFTFSSQAMSWVRQAPGKGLEWVSAISGSGGGTYYADSVKGRFTISRDNSKNTLYLQMNSLRAEDTAVYYCAKDRRFGEFDPWGQGTLVTVSS VL: QSALTQPASVSGSPGQSITISCTGTSSGVGSYNLVSWYQQHPGKAPKLMIYEASKRPSGVSNRFSGSKSGNTASLTISGLQAEDEADYYCCSYAGSYTFAVFGGGTKLTVL | 1.2 |
| SARS-CoV-2 variant 1-4 (antibody, V domains shown) VH: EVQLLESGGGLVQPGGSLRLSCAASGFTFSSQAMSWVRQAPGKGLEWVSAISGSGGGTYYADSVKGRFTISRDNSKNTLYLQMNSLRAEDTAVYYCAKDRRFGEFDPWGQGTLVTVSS VL: QSALTQPASVSGSPGQSITISCTGTSSDVGTYNLVSWYQQHPGKAPKLMIYEGSQRPSGVSNRFSGSKSGNTASLTISGLQAEDEADYYCCSYAGSSSFVVFGGGTKLTVL | 0.9 |
